# Test summary: A quantitative high throughput screen for small molecules that induce DNA re-replication in SW480 colon adenocarcinoma cells. Further: nearly all actives have a fitted effect of over 55% in size.
# Condition context: Hoechst DNA content imaging, 48 h; series mostly up to 46.1 µM
In all, about 340,000 compounds went through this assay and about 6,200 (1.8%) were called active. Roughly 10% stayed inconclusive and do not appear here. The call rests on the fitted dose curve; in most records, active means well fitted activation curve with a large enough effect; inconclusive means small, poorly fitted or top-dose-only effect; inactive means no such curve, though single readings can be large or run the other way. This is one part of a sample in which actives are shown more often than they occur.
Reply using exactly one outcome from 1 = active, 0 = inactive

Cn1c(N)c(C(=O)COC(=O)c2ccc3ccccc3c2)c(=O)n(C)c1=O; 0

Asked: Returns: the outcome recorded for C=CCn1c(SCC(=O)NCC2CCCO2)nc2sc(C)c(C)c2c1=O (configuration not stated) in this assay.
Given back: 0

Asked: Returns: the outcome recorded for `O=C(COC(=O)c1ccc(F)cc1)Nc1ccc2c(c1)OCO2` in this assay.
Given back: 0

Asked: Returns: the outcome recorded for `CCNC(=O)c1ccc(OCC(=O)Nc2ccc(F)cc2)c(OC)c1` in this assay.
Given back: 0

Asked: Returns: the outcome recorded for `CC[C@]12c3[nH]c4ccc(Cl)cc4c3CCN1C(=O)[C@@H](CC(=O)NCCN1CCOCC1)C[C@@H]2C(=O)N1CCN(C(=O)C2CC2)CC1` in this assay.
Given back: 0

Asked: Returns: the outcome recorded for `COc1ccc(C(=O)c2c3ccc([N+](=O)[O-])cc3[n+]([O-])n2CCCN)cc1` in this assay.
Given back: 1

----------
# Test summary: A quantitative high throughput screen for small molecules that induce DNA re-replication in SW480 colon adenocarcinoma cells. Further: nearly all actives have a fitted effect of over 55% in size.
# Condition context: Hoechst DNA content imaging, 48 h; series mostly up to 46.1 µM
Among all 340,000 compounds or so, about 6,200 (1.8%) were called active. About 10% were inconclusive and are not listed. Only a selection was taken, and actives are over-represented in it overall.
Measurement type: outcome

CCNc1nc(NCC)nc(N/N=C/c2ccc(O)c(OC)c2)n1; inactive
CC(=O)C(CC(=O)N1CCCC1)C(=O)Nc1ccc(Cl)cc1 (stereo unspecified); inactive
CCOC(=O)c1sc(NC(=O)COc2ncnc3ccccc23)c(C(=O)OCC)c1C; inactive
COc1ccc(OCc2cn3c(C)cc(C)nc3n2)cc1; inactive
Cc1cccn2c(=O)c3cc(C(=O)N4COCC4(C)C)n(C)c3nc12; inactive

Now consider the entry below.
Asked: Give the measured outcome of `Cc1cccn2c(=O)c3cc(C(=O)NC4CCCCC4)sc3nc12` .
Given back: inactive

----------
# Test summary: A quantitative high throughput screen for small molecules that induce DNA re-replication in SW480 colon adenocarcinoma cells. Further: nearly all actives have a fitted effect of over 55% in size.
# Condition context: Hoechst DNA content imaging, 48 h; series mostly up to 46.1 µM
Among all 340,000 compounds or so, about 6,200 (1.8%) were called active. Inconclusive results (about 10%) are left out. The call rests on the fitted dose curve; in most records, active means well fitted activation curve with a large enough effect; inconclusive means small, poorly fitted or top-dose-only effect; inactive means no such curve, though single readings can be large or run the other way. For the sample, actives were picked, then their nearest neighbours and some compounds at random.
Reply using exactly one outcome from yes (1) = active, no (0) = inactive

COC(=O)COc1cccc2c(=O)n(CC(=O)NCc3ccccc3)ccc12; yes (1)
O=C(OCC(=O)N1CCN(C(=O)c2ccco2)CC1)c1c(Cl)cccc1Cl; no (0)
C/C(=N\NC(=O)c1ccoc1C)c1ccccc1O; yes (1)

Asked: Returns: the outcome recorded for `COc1cc(NC(=O)c2[nH]cnc2C(N)=O)cc(C(=O)Nc2cccc(C(F)(F)F)c2)c1` in this assay.
Given back: no (0)

Asked: Returns: the outcome recorded for `Cc1nc(N)nc(Cl)c1CCC1OCCO1` in this assay.
Given back: no (0)

Asked: Returns: the outcome recorded for NCCN1CCN2C(=O)CN(C(=O)c3ccccc3)CC12 (stereo unspecified) in this assay.
Given back: no (0)

Asked: Returns: the outcome recorded for `N#Cc1cccc(NC(=O)COC(=O)c2ccccc2C(=O)c2ccc(Cl)c([N+](=O)[O-])c2)c1` in this assay.
Given back: no (0)

Asked: Returns: the outcome recorded for CC(OC(=O)CNC(=O)c1ccc(Cl)c([N+](=O)[O-])c1)C(=O)NCc1ccco1 (stereo unspecified) in this assay.
Given back: no (0)

Asked: Returns: the outcome recorded for CSCCC(NS(=O)(=O)c1ccc(C)cc1)C(=O)N(C)CC(=O)Nc1ccccc1Br (stereo unspecified) in this assay.
Given back: no (0)

Asked: Returns: the outcome recorded for `CC(C)(O)c1ccccc1CC[C@H](SCC1(CC(=O)O)CC1)c1cccc(/C=C/c2ccc3ccc(Cl)cc3n2)c1` in this assay.
Given back: no (0)

Asked: Returns: the outcome recorded for `COc1ccc(NC(=O)CN(C)C(=O)c2cccc(S(=O)(=O)N3CCN(c4ccccc4)CC3)c2)cc1` in this assay.
Given back: no (0)

Asked: Returns: the outcome recorded for COC1C(CO)OC(n2cnc3c(=S)nc(N)[nH]c32)C1O (stereo unspecified) in this assay.
Given back: no (0)

Asked: Returns: the outcome recorded for CC(=O)Nc1ccc(NC(=O)C(C)OC(=O)c2ccccc2C(=O)c2ccc(Cl)c([N+](=O)[O-])c2)cc1 (stereo unspecified) in this assay.
Given back: yes (1)

Asked: Returns: the outcome recorded for `O=C(NCC1CCCCC1)NCC1CCCCC1` in this assay.
Given back: no (0)

Asked: Returns: the outcome recorded for CC12CCC(C(=O)N(c3cccc(Cl)c3)C1=O)C2(C)C (stereo unspecified) in this assay.
Given back: no (0)

----------
# Test summary: A quantitative high throughput screen for small molecules that induce DNA re-replication in SW480 colon adenocarcinoma cells. Further: nearly all actives have a fitted effect of over 55% in size.
# Condition context: Hoechst DNA content imaging, 48 h; series mostly up to 46.1 µM
About 6,200 (1.8%) of roughly 340,000 compounds were called active. Roughly 10% stayed inconclusive and do not appear here. The call rests on the fitted dose curve; in most records, active means well fitted activation curve with a large enough effect; inconclusive means small, poorly fitted or top-dose-only effect; inactive means no such curve, though single readings can be large or run the other way. The list comes from a sample in which actives are over-represented; it also holds close analogues and randomly drawn compounds.
Reply using exactly one outcome from active, inactive

See these solved cases before continuing.
CCN(C(=O)CSc1cccc[n+]1[O-])c1ccccc1; inactive
N#Cc1c(N)n(CCOC(=O)c2ccc(Cl)cc2)c2nc3ccccc3nc12; active
CCc1ccc(C(=O)C(C)OC(=O)CN2C(=O)NC3(CCCC3)C2=O)cc1 (stereo unspecified); active
O=C(Nc1c[nH]c(=O)[nH]c1=O)OCc1ccccc1; inactive
O=C(CN1C(=O)NC2(CCCC2)C1=O)OCCOc1ccc(F)cc1; inactive

Asked: Returns: the outcome recorded for `Cc1ccc(-c2csc(C(C#N)=C(O)CN3CCN(C(=O)c4ccco4)CC3)n2)cc1` in this assay.
Given back: inactive

Asked: Returns: the outcome recorded for `CC(C)(C)c1ccc(C(=O)NCC(=O)OCN2C(=O)c3ccccc3C2=O)cc1` in this assay.
Given back: inactive

Asked: Returns: the outcome recorded for `CN(C)c1nc(Nc2ccc(Cl)c(Cl)c2)nc(N(C)C)n1` in this assay.
Given back: active

Asked: Returns: the outcome recorded for `CC(C)(C)c1ccc(C(=O)NCCn2c(N)c(C#N)c3nc4ccccc4nc32)cc1` in this assay.
Given back: active

Asked: Returns: the outcome recorded for `OCCNc1nc(Nc2ccc(Cl)c(Cl)c2)nc2ccccc12` in this assay.
Given back: inactive

Asked: Returns: the outcome recorded for CC1CN(Cc2ccco2)C(=S)N(c2ccccc2)C1=O (stereo unspecified) in this assay.
Given back: inactive

----------
# Test summary: A quantitative high throughput screen for small molecules that induce DNA re-replication in SW480 colon adenocarcinoma cells. Further: nearly all actives have a fitted effect of over 55% in size.
# Condition context: Hoechst DNA content imaging, 48 h; series mostly up to 46.1 µM
Hit rate of the full screen: of about 340,000 compounds, about 6,200 (1.8%) were called active. About 10% were inconclusive and are not listed. Calls come from the whole dose curve; as a rule, active = well fitted activation curve with a large enough effect; inconclusive = small, poorly fitted or top-dose-only effect; inactive = no such curve, though single readings can be large or run the other way. Shown is part of a subset that was picked to be rich in actives.
Reply using exactly one outcome from label 1 for active, label 0 for inactive

See these solved cases before continuing.
CCCCCCCCNS(=O)(=O)CCNC1CCCCC1; label 0
Cc1cc(C(=O)Nc2ccccc2N2CCOCC2)c2ccccc2n1; label 0
COc1ccc(CNC(=O)CN2C(=O)c3ccccc3S2(=O)=O)cc1; label 0
CCCN1C2CCCC1CC(NC(=O)NC13CC4CC(CC(C4)C1)C3)C2 (stereo unspecified); label 0
COc1ccc(N2C(=O)/C(=C\c3ccco3)N=C2SCC(N)=O)cc1Cl; label 1

Asked: Returns: the outcome recorded for `Cn1c(CC(=O)NNC(=O)c2ccccc2F)nc2ccccc21` in this assay.
Given back: label 0

Asked: Returns: the outcome recorded for `Cc1cc(N2CCCC2)ccc1NC(=O)COc1ccc(Cl)cc1` in this assay.
Given back: label 0

----------
# Test summary: A quantitative high throughput screen for small molecules that induce DNA re-replication in SW480 colon adenocarcinoma cells. Further: nearly all actives have a fitted effect of over 55% in size. On re-replication activation: % of control where 0% means no effect.
# Condition context: Hoechst DNA content imaging, 48 h; series mostly up to 46.1 µM
# From the text: H Molecular Libraries Probe Production Network [MLPCN] NIH Chemical Genomics Center [NCGC] […] To identify compounds that induce re-replication in normal cells, an image-based assay was used to measure DNA content of nuclei, as detected by the fluorescent DNA binding dye, Hoechst. Cell nuclei were imaged by a fluorescence scanning plate imager and compounds that induce DNA re-replication were identified by the increase of nuclei with elevated fluorescence intensity […]
The campaign covered roughly 340,000 compounds. About 6,200 (1.8%) were called active. Another 10% or so got no clear call; they are omitted. This is one part of a sample in which actives are shown more often than they occur.
Measurement type: re-replication activation

CN(C(=O)c1cccc(NC(=O)Cc2ccc(NC(=O)C3CCCN(C(=O)C4CCCC4)C3)cc2)c1)C1CCC1 (configuration not stated); -19.7% [at 9.22 µM] (inactive)
COc1cc2c(-c3ccc4c(c3)OCO4)c(-c3ccsc3)oc(=O)c2cc1OC; -0.829% [at 9.22 µM] (inactive)
C#CCOCCOCCOCCNc1nc(N2CCN(C(=O)Cn3cc(CCO)nn3)CC2)nc(N2CCN(C(=O)[C@H](CCCCN)n3cc(CCCC)nn3)CC2)n1; 7.81% [at 9.22 µM] (inactive)
CN(C)C(=O)CCc1ccc2c3c([nH]c2c1)[C@]1(CCC2CCCC2)[C@@H](C(=O)N2CCOCC2)C[C@H](CC(=O)NCc2ccco2)C(=O)N1CC3; 19.7% [at 9.22 µM] (inactive)

Asked: Give the measured re-replication activation of `CCN(CC)C(=O)[C@H]1C[C@H](CC(=O)NCC23CC4CC(CC(C4)C2)C3)C(=O)N2CCc3c([nH]c4cc(CCC(=O)N(C)C)ccc34)[C@]12C` .
Given back: 25.4% [at 9.22 µM] (inactive)

Asked: Give the measured re-replication activation of `Cc1ccc(SCC(=O)N2CCN(c3ccc(F)cc3)CC2)cc1` .
Given back: 2.77% [at 1.84 µM] (inactive)
